Where a name gives a salt, the structure may show the parent alone.
Measured melting point, listed per entry.
Measurement type: melting point

Compound: CCn1cc(C2CCN(C)CC2)c2cc(OS(=O)(=O)c3ccccc3)ccc21.O=C(O)C(=O)O
Measurement type: melting point
Value observed: 127 to 130 °C

Compound: Cc1cc(OS(=O)(=O)c2ccccc2)cc2c(C3CCN(C)CC3)c[nH]c12 [Example 62]
Measurement type: melting point
Value observed: 118 °C

Compound: CCCCn1cc(C2CCN(C)CC2)c2cc(OS(=O)(=O)c3ccccc3)ccc21.Cl
Measurement type: melting point
Value observed: 169 to 172 °C

Compound: CN1CCC(c2c[nH]c3cc(F)c(OS(=O)(=O)c4c(F)cccc4F)cc23)CC1 [Example 32]
Measurement type: melting point
Value observed: 202 °C

Compound: CN1CCC(c2cn(Cc3ccccc3)c3ccc(OS(=O)(=O)c4ccccc4)cc23)CC1.Cl
Measurement type: melting point
Value observed: 227 to 230 °C

Compound: CC(C)n1cc(C2CCN(C)CC2)c2cc(OS(=O)(=O)c3ccccc3)ccc21.O=C(O)C(=O)O
Measurement type: melting point
Value observed: 103 to 107 °C

Compound: CN1CCC(c2cn(S(C)(=O)=O)c3ccc(OS(=O)(=O)c4ccccc4)cc23)CC1.O=C(O)C(=O)O
Measurement type: melting point
Value observed: 95 to 99 °C

Compound: CN1CCC(c2c[nH]c3ccc(OS(=O)(=O)c4ccc(F)cc4F)cc23)CC1 [Example 35]
Measurement type: melting point
Value observed: 163 to 164 °C

Compound: Cc1[nH]c2ccc(OS(=O)(=O)c3c(F)cccc3F)cc2c1C1CCN(C)CC1 (as salt: hydrochloride) [Example 31]
Measurement type: melting point
Value observed: 138 °C (dec.)

Compound: CN1CCC(c2cn(Cc3cccc(F)c3)c3ccc(OS(=O)(=O)c4ccccc4)cc23)CC1.Cl
Measurement type: melting point
Value observed: 103 to 105 °C

Compound: CN1CCC(c2c[nH]c3ccc(OS(=O)(=O)c4ccccc4)cc23)CC1 [Example 45]
Measurement type: melting point
Value observed: 189 to 194 °C

Compound: CN1CCC(c2c3n(c4ccc(OS(=O)(=O)c5c(F)cccc5F)cc24)CCC3)CC1.Cl
Measurement type: melting point
Value observed: 149 °C
